- procedureDetails: Area under the curve determinations of plasma levels in rats (rrAUC), oral 10 mg/kg
- Assay type: in vivo
- appliedConditions: rat, plasma 0.5-6 h post-dosing, read-out: RR AUC (rapid rat AUC, rrAUC)
quantityMeasured: AUC (µM·h)

1. COc1ccc2c(c1)C(=O)N(C[C@@]1(c3cc4cc(-c5cccnc5)ncc4o3)NC(=O)NC1=O)C2 : 9.84

1. COc1ccc2c(c1)C(=O)N(C[C@@]1(c3cc4cc(-c5ccccc5F)ncc4o3)NC(=O)NC1=O)C2
2. COc1ccc2c(c1)C(=O)N(C[C@@]1(c3cc4cc(N)ccc4o3)NC(=O)NC1=O)C2
3. COc1ccc2c(c1F)C(=O)N(C[C@@]1(c3cc4cc(-c5cn[nH]c5)c(F)cc4o3)NC(=O)NC1=O)C2
-- ask Write the entries in order, lowest recorded AUC first. Present the labels in the sequence the task asks for.
-- reply 2, 3, 1
